# PROCEDURE SUMMARY: clinical
# PARTICULARS: both sexes, human, in vivo, 400 mg

GIVEN SMILES	Cmax [ng/mL]
O=C1Nc2ccc(Cl)cc2[C@@](C#CC2CC2)(C(F)(F)F)O1	1560

---

# PROCEDURE SUMMARY: clinical
# PARTICULARS: both sexes, human, in vivo, 400 mg, AUC0-last

GIVEN SMILES	AUC(0-t) [ng·h/mL]
O=C1Nc2ccc(Cl)cc2[C@@](C#CC2CC2)(C(F)(F)F)O1	80400

---

# PROCEDURE SUMMARY: clinical
# PARTICULARS: both sexes, human, in vivo, 400 mg, tmax, median
PARAMETER MEASURED: Tmax (h)

MOLECULE	PARAMETER MEASURED	VALUE UNITS	RECORDED NUMBER
O=C1Nc2ccc(Cl)cc2[C@@](C#CC2CC2)(C(F)(F)F)O1 [Efavirenz]	Tmax	h	3.05

---

# PROCEDURE SUMMARY: clinical
# PARTICULARS: human, in vivo

COMPOUND	half-life
N[C@@H]1CC[C@@H](c2ccc(Cl)c(Cl)c2)c2ccccc21 [Dasotraline]	47.1 to 77 h

---

# PROCEDURE SUMMARY: clinical
# PARTICULARS: both sexes, human, in vivo, 400 mg, AUC0-24

GIVEN SMILES	VALUE UNITS	AUC(0-t)
O=C1Nc2ccc(Cl)cc2[C@@](C#CC2CC2)(C(F)(F)F)O1	ng·h/mL	18200

---

# PROCEDURE SUMMARY: clinical
# PARTICULARS: both sexes, human, in vivo, tmax, median

GIVEN SMILES	Tmax
O=C1Nc2ccc(Cl)cc2[C@@](C#CC2CC2)(C(F)(F)F)O1	4 h

---

# PROCEDURE SUMMARY: clinical
# PARTICULARS: both sexes, human, in vivo, mean AUC0-inf

COMPOUND	VALUE UNITS	AUC(0-inf)
O=C1Nc2ccc(Cl)cc2[C@@](C#CC2CC2)(C(F)(F)F)O1 [Efavirenz]	ng·h/mL	87900
